# Test system: SFV-Rluc
Binary call on SFV replication % left (surviving fraction, remaining percentage of SFV replication) with cut-off 60%: strictly below means label 1, and equality or higher means label 0.

Answer whether the compound Cc1cc(=O)oc2cc(O)ccc12 [Methylumbelliferone] has SFV replication % left (surviving fraction, remaining percentage of SFV replication) strictly less than 60%
label 1

Same for CC(=O)Nc1ccc(OCC(O)CNC(C)C)cc1 (stereo not shown)
label 0

Same for O=C(O)c1cc(O)cc(O)c1 [3,5-Dihydroxybenzoic acid]
label 1

Same for CSc1ccc2c(c1)N(CCC1CCCCN1C)c1ccccc1S2 (stereo not shown) [Thioridazine, reference compound]
label 1

Same for CN[C@H](C)[C@@H](O)c1ccc(O)cc1 [p-Hydroxyephedrine]
label 0

Same for CNC[C@H](O)c1cccc(O)c1.Cl [L-Phenylephrine hydrochloride]
label 0

Same for COc1cc(/C=C/C(=O)O)ccc1O
label 0

Same for CC(C)NCC(O)COc1cccc2[nH]ccc12 (stereo not shown)
label 0

Same for CC(=O)Nc1ccc(S(N)(=O)=O)cc1 [N-Acetylsulfanilamide]
label 0

Same for CC(C)NCC(O)c1ccccc1Cl.Cl.O (stereo not shown) [Clorprenaline hydrochloride]
label 0
